- Assay Method Text: Stability in cryopreserved hepatocytes, dog
- Type: in vitro ADME
- Stated Conditions: cryopreserved hepatocytes (suspension); Dog (Beagle) hepatocytes, mean n = 2
Measurement Name: microsomal CLint at 3 μM (µL/min/mg)
Answers are plain numbers, in µL/min/mg.

Inquiry: Consider the compound CC#C[C@@H](CC(=O)O)c1ccc(OCC(C)=C(C)C)cc1 and give its recorded microsomal CLint at 3 μM.
Reply text: 7.76

====

- Assay Method Text: Single-dose pharmacokinetics in rats (p.o. and i.v.)
- Assay type: in vivo, rat
- Stated Conditions: Wistar Han, rat, plasma, oral, 200 mg/kg, rat, dose 200 mg/kg, Day 1, individual animals; read-out: exposure - AUC
Measurement Name: AUC (µg·h/mL)
Numbers only, in µg·h/mL.

Inquiry: Please supply the value of reported AUC for the item CC#C[C@@H](CC(=O)O)c1ccc(OCC(C)=C(C)C)cc1
Reply text: 1240
